The origin of these recorded values is patent US20230174596A1.

# assay.system: T1, hVEGF-A (8-109) (human, UniProt P15692 214-315)
# T1 construct: residue numbers count on mature VEGF-A; dimer
# T1 sequence (looked up): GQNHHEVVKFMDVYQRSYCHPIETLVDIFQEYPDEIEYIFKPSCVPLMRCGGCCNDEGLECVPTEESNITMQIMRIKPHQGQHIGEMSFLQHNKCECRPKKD
# assay.procedure: spot phage ELISA
measured.parameter: ELISA
Lab note: jot the number down without any unit.

The cases that follow already have their ELISA on record.
{"binder": "GCNLMHPFWGCKQDSDCLAGCVCHWYQSCG (designed binder) [VEGF_CKP9.51]", "assay.result": 1}
{"binder": "GCQLLQPLWGCKQDSDCLAGCVCRWYQSCG (designed binder) [VEGF_CKP9.71]", "assay.result": 1}

For the next question, use this binder.
Entry under review: GCLDPSFNWSLYCKQDSDCLAGCVCQMYDSCG (designed binder) [VEGF_CKP7.57] . Reported ELISA?
1
